Recorded values, source patent US12036199B1.

Experiment: In vitro stability of 10 μM DB104 incubated in fresh human plasma (HRMS / LC-MS detection of DB104, intermediates and L-DOPA)
Assay type: in vitro ADME
Conditions: human plasma incubation of DB104
Method: 10 μM DB104 (DB104 is identified above and is one of the Derivatives of the present invention) was incubated in fresh plasma and phosphate buffer saline (PBS) in multiple aliquots, and each aliquot was divided into two equal halves at the following time points: 0, 1, 2, 4, 6, 24, 48, 72, 96, 120, 144, 168, 192, 216, 240, and 264 h. […] The other half was quenched with perchloric acid and analyzed on an AB Sciex 7500 mass spectrometer to detect L-DOPA. […]
OBSERVED PROPERTY: degradation product of DB104 observed in human plasma

MOLECULE	VALUE MEASURED
CCCCCCCCCCCCOC(=O)C(N)Cc1ccc(O)c(O)c1 (centres unmarked) [DB104M3]	observed
CCCCCCCCCCCCOC(=O)C(N)Cc1ccc(O)c(OC(=O)CCCCCCCCCCC)c1 (centres unmarked) [DB104M4]	observed
N[C@@H](Cc1ccc(O)c(O)c1)C(=O)O [Levodopa, reference compound]	observed
